All values here come from patent US12624028B2.

measured_target: NL20 human bronchial epithelial cells expressing human Z-AAT (Homo sapiens, UniProt P01009, E366K)
Sequence (P01009 25-418 E366K): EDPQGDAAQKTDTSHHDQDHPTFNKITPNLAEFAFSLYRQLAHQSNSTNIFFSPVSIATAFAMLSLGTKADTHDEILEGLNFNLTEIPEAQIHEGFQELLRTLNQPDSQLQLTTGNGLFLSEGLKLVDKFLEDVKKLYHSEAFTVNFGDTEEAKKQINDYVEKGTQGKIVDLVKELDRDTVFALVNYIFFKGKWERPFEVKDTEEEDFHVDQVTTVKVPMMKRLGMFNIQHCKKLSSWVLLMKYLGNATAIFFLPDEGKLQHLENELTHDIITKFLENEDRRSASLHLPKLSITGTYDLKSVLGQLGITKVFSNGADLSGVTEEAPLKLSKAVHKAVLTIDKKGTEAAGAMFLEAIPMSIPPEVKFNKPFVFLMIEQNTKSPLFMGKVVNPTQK
method_summary: AAT Function Assay (MSD Assay NL20-SI Cell Line)
test_conditions: functionally active AAT (AAT-hNE complex, MSD) from NL20 cells expressing human Z-AAT; read-out: NL20 Functional EC50
pEC50: −log10 of the molar value.
property: pEC50

Consider the worked cases shown below.
* CC(C)c1nc(OC2CC3(CCN(CC(=O)O)C3=O)C2)c2cc3[nH]ncc3cc2c1-c1ccc(F)cc1 (single isomer, unassigned) [Compound 124] | 5.52 to 5.94
* COc1cc(F)ccc1-c1c(C(C)C)c(-c2ccc(C(=O)O)cc2)nc2cc3[nH]ncc3cc12 | 5.52 to 5.94
* CC(Nc1nc2cc3[nH]ncc3cc2c(-c2ccc(F)cc2)c1C(C)C)C(=O)O (stereo in doubt) | 5.52 to 5.94
* CC(C)c1c(Oc2ccc(C(=O)O)c(F)c2)nc2cc3[nH]ncc3cc2c1-c1ccc(F)cc1 | > 5.94
* CC(C)c1c(-c2ccc(F)cc2)c2cc3cn[nH]c3cc2c(=O)n1[C@H]1C[C@H](C(=O)O)C1 | > 5.94

Req: State the recorded pEC50 for this entry: CC(O[C@H]1C[C@H](Oc2nc(C(C)C)c(-c3ccc(F)cc3)c3cc4cn[nH]c4cc23)C1)C(=O)O (stereo partly drawn)
Resp: > 5.94

Req: State the recorded pEC50 for this entry: CC(C)c1nc(O[C@H]2C[C@H](C(=O)O)C2)c2cc3[nH]ncc3cc2c1-c1ccc(F)c(F)c1
Resp: > 5.94

Req: State the recorded pEC50 for this entry: CC(C)c1nc(Oc2ccc(S(C)(=O)=O)cc2)c2cc3[nH]ncc3cc2c1-c1ccc(F)cc1
Resp: > 5.94

Req: State the recorded pEC50 for this entry: CC(C)c1c(-c2ccc(C(=O)N3CCOCC3)cc2)nc2cc3[nH]ncc3cc2c1-c1ccc(F)cc1
Resp: < 5.52

Req: State the recorded pEC50 for this entry: COc1cc(-c2c(C3CCOCC3)nc(O[C@H]3C[C@H](C(=O)O)C3)c3cc4[nH]ncc4cc23)ccc1F
Resp: > 5.94

Req: State the recorded pEC50 for this entry: COc1cc(-c2nc3c(C)c4[nH]ncc4cc3c(-c3ccc(F)cc3)c2C(C)C)ccc1C(=O)O
Resp: > 5.94

Req: State the recorded pEC50 for this entry: O=C(O)[C@H]1C[C@H](Oc2nc(C3CCOCC3)c(-c3ccc(F)c(F)c3)c3cc4cn[nH]c4cc23)C1
Resp: > 5.94
